The measured values listed here are drawn from ChEMBL document CHEMBL1157891.

# Test system: Mus musculus
# measurement-protocol: Inhibition of haloperidol-induced catalepsy in po dosed mouse
# Type: functional
Under this convention, yes denotes ED50 strictly below 4 mg/kg and no denotes ED50 at or above 4 mg/kg.

smi: CN(C)CCN(C)c1ccc(-c2nc(N)nc3c2C(=O)c2ccccc2-3)o1
assigned-class: no

Exercise: Dear reviewer, please state whether `CN1CCN(Cc2ccc3c(c2)-c2nc(N)nc(-c4ccc(F)cc4)c2C3=O)CC1` has ED50 strictly beneath 4 mg/kg.
Solution: yes

Exercise: Dear reviewer, please state whether `Nc1nc(-c2ccc(F)cc2)c2c(n1)-c1cc(CN3CCCCC3)ccc1C2=O` has ED50 strictly beneath 4 mg/kg.
Solution: yes

Exercise: Dear reviewer, please state whether `Nc1nc(-c2ccccc2)c2c(n1)-c1c(CN3CCOCC3)cccc1C2=O` has ED50 strictly beneath 4 mg/kg.
Solution: no

Exercise: Dear reviewer, please state whether `Nc1nc(-c2ccco2)c2c(n1)-c1ccccc1C2=O` has ED50 strictly beneath 4 mg/kg.
Solution: no

Exercise: Dear reviewer, please state whether `Nc1nc(-c2ccccc2)c2c(n1)-c1c(CN3CCCCC3)cccc1C2=O` has ED50 strictly beneath 4 mg/kg.
Solution: no

Exercise: Dear reviewer, please state whether `CN1CCN(Cc2cccc3c2-c2nc(N)nc(-c4ccccc4)c2C3=O)CC1` has ED50 strictly beneath 4 mg/kg.
Solution: no

Exercise: Dear reviewer, please state whether `Nc1nc(-c2ccc(F)cc2)c2c(n1)-c1c(CN3CCOCC3)cccc1C2=O` has ED50 strictly beneath 4 mg/kg.
Solution: yes

Exercise: Dear reviewer, please state whether `Nc1nc(-c2ccccc2)c2c(n1)-c1ccccc1C2=O` has ED50 strictly beneath 4 mg/kg.
Solution: no

Exercise: Dear reviewer, please state whether `Nc1nc(-c2ccccc2)c2c(n1)-c1c(CN3CCCC3)cccc1C2=O` has ED50 strictly beneath 4 mg/kg.
Solution: yes

* * *

# measurement-protocol: Mutagenic activity in Salmonella Typhimurium by Ames assay
# Assay type: toxicity
# test-context: salmonella enterica subsp. enterica serovar typhimurium
endpoint-name: Activity

Below, each entry is followed by its recorded Activity result.
smi: COc1cccc(-c2nc(N)nc3c2C(=O)c2ccccc2-3)c1
Activity: Non-toxic

smi: Nc1nc(-c2ccco2)c2c(n1)-c1ccccc1C2=O
Activity: Toxic

smi: Nc1nc(-c2ccccc2)c2c(n1)-c1ccccc1C2=O
Activity: Non-toxic

smi: Nc1nc(-c2ccc(Cl)cc2)c2c(n1)-c1ccccc1C2=O
Activity: Non-toxic

smi: COc1ccccc1-c1nc(N)nc2c1C(=O)c1ccccc1-2
Activity: Non-toxic

Let us examine a further case.
Exercise: Query Activity for `CN(C)CCN(C)c1ccc(-c2nc(N)nc3c2C(=O)c2ccccc2-3)o1`
Solution: Non-toxic

* * *

Consider the following molecules; for each one, report its pKi.
# measured-target: Adenosine receptor A2a (Homo sapiens)
# measurement-protocol: Antagonist activity at adenosine A2A receptor
Answers are plain numbers, as −log10 of the molar value.

Below, each entry is followed by its recorded pKi result.
smi: N#Cc1cccc(-c2nc(N)nc3c2C(=O)c2cccc(CN4CCOCC4)c2-3)c1
pKi: 8.27

smi: CCN(CC)Cc1cccc2c1-c1nc(N)nc(-c3ccccc3)c1C2=O
pKi: 7.74

smi: Nc1nc(-c2ccccc2)c2c(n1)-c1c(CN3CCCCC3)cccc1C2=O
pKi: 7.84

smi: Nc1nc(-c2ccccc2)c2c(n1)-c1c(CN3CCCCCC3)cccc1C2=O
pKi: 8.07

Exercise: Query pKi for `CN(C)CCN(C)c1ccc(-c2nc(N)nc3c2C(=O)c2ccccc2-3)o1`
Solution: 7.98

* * *

# measured-target: Adenosine receptor A2a (Homo sapiens, UniProt P29274)
# Sequence (P29274 whole entry): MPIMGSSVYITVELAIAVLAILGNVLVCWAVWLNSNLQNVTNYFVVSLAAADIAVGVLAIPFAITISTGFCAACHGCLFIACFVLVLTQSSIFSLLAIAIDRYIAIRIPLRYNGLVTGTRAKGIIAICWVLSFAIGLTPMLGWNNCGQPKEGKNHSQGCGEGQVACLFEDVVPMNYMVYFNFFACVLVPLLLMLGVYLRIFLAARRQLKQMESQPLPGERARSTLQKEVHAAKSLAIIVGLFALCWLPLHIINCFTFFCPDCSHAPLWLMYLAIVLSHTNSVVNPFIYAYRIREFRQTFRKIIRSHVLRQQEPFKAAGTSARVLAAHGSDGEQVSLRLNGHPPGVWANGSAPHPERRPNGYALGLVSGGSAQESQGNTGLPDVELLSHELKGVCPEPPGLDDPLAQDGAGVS
# measurement-protocol: Antagonist activity at adenosine A2A receptor
endpoint-name: Ki (nM)
Give bare numbers, in nM.

compound: Nc1nc(-c2ccc(F)cc2)c2c(n1)-c1c(CN3CCOCC3)cccc1C2=O
Ki / nM: 3.8
--
compound: CN1CCN(Cc2cccc3c2-c2nc(N)nc(-c4ccccc4)c2C3=O)CC1
Ki / nM: 11.3

Parameter requested: Ki. Apply to each item below.
1. Nc1nc(-c2ccc(F)cc2)c2c(n1)-c1cc(CN3CCCCC3)ccc1C2=O
2. CC(=O)N1CCN(Cc2cccc3c2-c2nc(N)nc(-c4ccccc4)c2C3=O)CC1
3. CC1CCC(C)N1Cc1cccc2c1-c1nc(N)nc(-c3ccccc3)c1C2=O (stereo not given)

Solution:
[9.9, 7.9, 11.3]

* * *

# measured-target: Adenosine receptor A2a (Homo sapiens, UniProt P29274)
# measurement-protocol: Antagonist activity at adenosine A2A receptor
pKi: −log10 of the molar value.
Record T whenever pKi is at 8 or higher; record F when lower.

Past entries and their recorded results:
smi: CN1CCN(Cc2ccc3c(c2)-c2nc(N)nc(-c4ccc(F)cc4)c2C3=O)CC1
assigned-class: F

smi: Nc1nc(-c2ccccc2)c2c(n1)-c1c(CN3CCOCC3)cccc1C2=O
assigned-class: T

Exercise: Please tell me: is the compound `Nc1nc(-c2nccs2)c2c(n1)-c1ccccc1C2=O` at or over 8 in terms of pKi?
Solution: T
